Values compiled from patent US8349852B2.

Molecular target: human TRPV1 (Homo sapiens)
Experiment: inhibition of low pH-, capsaicin-, anandamide- and NADA-stimulation of human TRPV1
Format: cell-based
Conditions: IC50, inhibition of capsaicin-stimulation of human TRPV1, stimulus: capsaicin
Assay metric: IC50 (nM)
Respond with the bare value in nM.

## Input Need IC50, item `CC(C)c1nc2cc(O)ccc2c(=O)n1-c1ccc(C#N)cc1`
## Output 12

* * *

Target: human TRPV1 (Homo sapiens, UniProt Q8NER1)
Sequence (Q8NER1 whole entry): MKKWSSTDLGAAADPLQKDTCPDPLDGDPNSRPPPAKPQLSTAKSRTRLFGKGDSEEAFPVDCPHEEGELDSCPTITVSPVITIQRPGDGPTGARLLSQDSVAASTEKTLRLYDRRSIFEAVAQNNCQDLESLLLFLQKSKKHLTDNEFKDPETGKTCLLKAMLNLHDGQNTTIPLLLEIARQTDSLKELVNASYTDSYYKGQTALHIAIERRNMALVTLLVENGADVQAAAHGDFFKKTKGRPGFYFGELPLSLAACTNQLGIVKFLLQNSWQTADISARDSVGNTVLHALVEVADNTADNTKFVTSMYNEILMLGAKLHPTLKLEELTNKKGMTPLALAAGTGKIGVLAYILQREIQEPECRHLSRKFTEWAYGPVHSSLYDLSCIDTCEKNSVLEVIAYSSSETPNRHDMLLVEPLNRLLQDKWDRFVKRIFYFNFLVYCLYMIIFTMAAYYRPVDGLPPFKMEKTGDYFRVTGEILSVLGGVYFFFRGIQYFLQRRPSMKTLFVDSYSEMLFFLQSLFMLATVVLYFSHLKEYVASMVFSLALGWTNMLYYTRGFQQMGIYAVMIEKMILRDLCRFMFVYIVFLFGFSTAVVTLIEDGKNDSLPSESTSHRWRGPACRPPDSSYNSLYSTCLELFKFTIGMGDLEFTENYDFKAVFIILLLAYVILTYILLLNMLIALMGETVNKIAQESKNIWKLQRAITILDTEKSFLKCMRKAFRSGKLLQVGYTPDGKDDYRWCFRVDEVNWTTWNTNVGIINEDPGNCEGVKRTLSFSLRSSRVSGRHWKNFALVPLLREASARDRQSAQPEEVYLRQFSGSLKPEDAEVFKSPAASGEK
Test: inhibition of low pH-, capsaicin-, anandamide- and NADA-stimulation of human TRPV1
Format: cell-based
Conditions: IC50, inhibition of anandamide-stimulation of human TRPV1, stimulus: anandamide
Assay metric: IC50 (nM)
Respond with the bare value in nM.

## Input Need IC50, item `CC(C)c1nc2cc(O)ccc2c(=O)n1-c1ccc(C#N)cc1`
## Output 10
